- Tested on: H9c2
- Assay details: Cardioprotective activity against rat H9c2 cells assessed as reduction in H2O2-induced cell death at 20 uM incubated for 24 hrs followed by H2O2 stimulation and measured after 2 hrs by MTT assay
- Format: functional, cell-based
Calls of active or inactive are those of the source. No cut-off for these calls is given here.
Outcome codes: active, inactive

smi=O=S1(=O)N=Cc2cc(Cl)ccc2O1 target_system=H9c2 class=active
smi=Cc1ccc2c(c1)C=NS(=O)(=O)O2 target_system=H9c2 class=active
smi=O=S1(=O)N=Cc2ccccc2O1 target_system=H9c2 class=active
smi=O=S1(=O)N=Cc2ccc(F)cc2O1 target_system=H9c2 class=active
smi=O=S1(=O)N=Cc2c(F)cccc2O1 target_system=H9c2 class=active
smi=COc1ccc2c(c1)OS(=O)(=O)N=C2 target_system=H9c2 class=active
smi=CC(C)(C)c1cccc2c1OS(=O)(=O)N=C2 target_system=H9c2 class=inactive
smi=COc1cccc2c1OS(=O)(=O)N=C2 target_system=H9c2 class=active
smi=O=S1(=O)N=Cc2cccc(Cl)c2O1 target_system=H9c2 class=active
smi=CCN(CC)c1ccc2c(c1)OS(=O)(=O)N=C2 target_system=H9c2 class=active
smi=O=S1(=O)N=Cc2cc(Br)ccc2O1 target_system=H9c2 class=active
smi=Cc1ccc2c(c1)OS(=O)(=O)N=C2 target_system=H9c2 class=active
smi=O=S1(=O)N=Cc2c(ccc3ccccc23)O1 target_system=H9c2 class=active
smi=COc1ccc2c(c1)C=NS(=O)(=O)O2 target_system=H9c2 class=active
smi=O=S1(=O)N=Cc2cccc(F)c2O1 target_system=H9c2 class=active
smi=O=c1cc(-c2ccc(O)c(O)c2)oc2cc(O)cc(O)c12 target_system=H9c2 class=active
smi=O=S1(=O)N=Cc2ccc(Cl)cc2O1 target_system=H9c2 class=active
